Where these numbers come from: ChEMBL document CHEMBL3507680

cytotoxicity at 70.5 h reference
experiment: Human HepG2 cell viability assay in 384 well format; type: toxicity, cell-based; design: dose 125 nL, time 70.5 hour; concentration not given beside the values; settings: HepG2 cells, read-out: Inhibition
Report as a plain number; the unit % is understood.

Consider the following illustrative entries.
Molecule	Measured parameter	Measured value
Cc1nn(C)c(Cl)c1C1CCCN1c1ncnc2[nH]ccc12 (stereo unspecified)	cytotoxicity at 70.5 h	12.9
Cn1nc(C2CCCN(Cc3cc(F)ccc3F)C2)c2nccnc21 (stereo unspecified)	cytotoxicity at 70.5 h	-2.84
CCS(=O)(=O)c1ccccc1N1CCC(NC(=O)c2ccc[nH]2)CC1	cytotoxicity at 70.5 h	-1.59
COCCCNC(=O)c1cn(C(C)C)cc2c(=O)[nH]nc1-2	cytotoxicity at 70.5 h	-9.87
COCC(=O)N1Cc2ccnn2CC(COCCN(C)C)C1 (stereo unspecified)	cytotoxicity at 70.5 h	-3.25

Now examine the next entry.
Prompt: Read the entry COCCOc1ccc(C(=O)N2CCCC(n3cncn3)C2)cn1 (stereo unspecified) and write its reported cytotoxicity at 70.5 h.
Response: 10.1

* * *

assay: Human HepG2 cell viability assay in 384 well format; assay type: toxicity, cell-based; design: dose 125 nL, time 70.5 hour; concentration not given beside the values; details: HepG2 cells, read-out: Inhibition
Measured parameter: cytotoxicity at 70.5 h (%)
Report as a plain number; the unit % is understood.

Consider the following illustrative entries.
Compound	Unit abbreviation	cytotoxicity at 70.5 h
CN(C)S(=O)(=O)N1CCC(c2cccc(Cc3ccccc3Cl)n2)CC1	%	18.2
CC(=O)c1ccc(S(=O)(=O)N2CCCC2CN2CCCC2)cc1 (configuration not stated)	%	-8.94
Cc1nc(CC(C)C)cc(C(=O)N2C[C@@H](N(C)C)[C@H](C(C)C)C2)n1	%	67

Prompt: Read the entry CCN1CCN(c2ccc(C(=O)NCCOC)cc2F)CC1 and write its reported cytotoxicity at 70.5 h.
Response: 25.2

Prompt: Read the entry Cc1nc(N(C)C)nc(N2CCC3(CC2)CNC(=O)O3)c1C and write its reported cytotoxicity at 70.5 h.
Response: -5.15

Prompt: Read the entry CCn1cc(CN2CCCN(C(=O)c3ccc(C)nc3)CC2)cn1 and write its reported cytotoxicity at 70.5 h.
Response: -6.02

Prompt: Read the entry COc1ccnc(N2CCCN(c3nc(C4CC4)ns3)CC2)n1 and write its reported cytotoxicity at 70.5 h.
Response: -9.55

Prompt: Read the entry CN1CCC(CNC(=O)NCc2ccc(F)cc2)CC1 and write its reported cytotoxicity at 70.5 h.
Response: -1.23

Prompt: Read the entry O=C(NC1CC1)c1cnc(-c2noc3cc(N4CCCCC4)ccc23)s1 and write its reported cytotoxicity at 70.5 h.
Response: -0.737

Prompt: Read the entry CCc1cnc(CN(C(C)=O)C2CCN(CCc3cccs3)C2)o1 (configuration not stated) and write its reported cytotoxicity at 70.5 h.
Response: 8.24

Prompt: Read the entry Cc1nc(CNC(=O)NCC(O)c2ccc(F)cc2)cs1 (configuration not stated) and write its reported cytotoxicity at 70.5 h.
Response: -3.15

Prompt: Read the entry O=C(NC1CCC1)[C@H]1CCS(=O)(=O)[C@@H]2CN(CCc3ccccc3)C[C@H]12 and write its reported cytotoxicity at 70.5 h.
Response: 0.419

Prompt: Read the entry CN(C)c1nc2c(c(N3CCCC3)n1)CCN(C(=O)c1ccc[nH]1)CC2 and write its reported cytotoxicity at 70.5 h.
Response: 25.5

Prompt: Read the entry CC(=O)N1CCC(c2[nH]ncc2S(C)(=O)=O)CC1 and write its reported cytotoxicity at 70.5 h.
Response: -5.52
